Listing of entries alongside the reported TGI.
system: NCI-H23 lung; assay: NCI tumour cell line growth inhibition, 48 h

- MOLECULE: "O=c1cc(NNc2ccccc2)[nH]c(=O)[nH]1"
  TARGET OR SYSTEM: "NCI-H23 lung"
  TGI: "> 100 µM"
- MOLECULE: "Cc1[nH]n(-c2nc(-c3ccccc3)cc(=O)[nH]2)c(=O)c1CCO"
  TARGET OR SYSTEM: "NCI-H23 lung"
  TGI: "> 100 µM"
- MOLECULE: "N=C1OC(CN2CCN(c3ccccc3)CC2)CN1C(=O)Nc1ccccc1 (stereo unspecified)"
  TARGET OR SYSTEM: "NCI-H23 lung"
  TGI: "> 100 µM"
- MOLECULE: "O=CNC(Cc1cnc[nH]1)C(=O)O (stereo unspecified)"
  TARGET OR SYSTEM: "NCI-H23 lung"
  TGI: "> 100 µM"
- MOLECULE: "COc1ccc(C2CC(c3sc(Nc4ccc(C)cc4)nc3C)=NN2)cc1 (stereo unspecified)"
  TARGET OR SYSTEM: "NCI-H23 lung"
  TGI: "30.7 µM"
- MOLECULE: "O=[N+]([O-])c1ccc2c(c1)nc1n2C(c2c(F)cccc2F)SC1 (stereo unspecified)"
  TARGET OR SYSTEM: "NCI-H23 lung"
  TGI: "> 100 µM"

---

system: HOP-92 NSCLC; assay: NCI tumour cell line growth inhibition, 48 h
MEASURED QUANTITY: TGI

- MOLECULE: "Cc1cccc(CNc2c3ccccc3nc3ccccc23)c1"
  TARGET OR SYSTEM: "HOP-92 NSCLC"
  MEASURED QUANTITY: "TGI"
  OBSERVED RESULT: "4.57 µM"
- MOLECULE: "COCN1COCN(C)C1=O"
  TARGET OR SYSTEM: "HOP-92 NSCLC"
  MEASURED QUANTITY: "TGI"
  OBSERVED RESULT: "> 100 µM"
- MOLECULE: "O=C1c2ccccc2C(=O)N1c1ccc(Cc2ccc(N3C(=O)c4ccccc4C3=O)cc2)cc1"
  TARGET OR SYSTEM: "HOP-92 NSCLC"
  MEASURED QUANTITY: "TGI"
  OBSERVED RESULT: "> 100 µM"
- MOLECULE: "O=C(N/N=C\\c1ccc(Cl)cc1)Nc1ccc2ccccc2c1"
  TARGET OR SYSTEM: "HOP-92 NSCLC"
  MEASURED QUANTITY: "TGI"
  OBSERVED RESULT: "77.7 µM"
- MOLECULE: "N#CN1CC[C@@H]2CC3(CCC2C1)OCCO3 (stereo partly specified)"
  TARGET OR SYSTEM: "HOP-92 NSCLC"
  MEASURED QUANTITY: "TGI"
  OBSERVED RESULT: "> 100 µM"
- MOLECULE: "COc1cc(/C=C/c2ccc(OC)c(OC)c2)oc(=O)c1"
  TARGET OR SYSTEM: "HOP-92 NSCLC"
  MEASURED QUANTITY: "TGI"
  OBSERVED RESULT: "> 250 µM"
- MOLECULE: "Cc1nc2c(Cl)cc(Cl)cc2c2c1CCO2"
  TARGET OR SYSTEM: "HOP-92 NSCLC"
  MEASURED QUANTITY: "TGI"
  OBSERVED RESULT: "> 100 µM"
- MOLECULE: "CC(=O)OCC1OC(n2c(C)c(C)cc(C#N)c2=S)C(OC(C)=O)C(OC(C)=O)C1OC(C)=O (stereo unspecified)"
  TARGET OR SYSTEM: "HOP-92 NSCLC"
  MEASURED QUANTITY: "TGI"
  OBSERVED RESULT: "> 100 µM"
- MOLECULE: "N=c1oc2cc(O)ccc2cc1C(=O)Nc1ccccn1"
  TARGET OR SYSTEM: "HOP-92 NSCLC"
  MEASURED QUANTITY: "TGI"
  OBSERVED RESULT: "> 100 µM"
- MOLECULE: "CCOC(=O)/C(C(N)=O)=C(\\O)C(=O)/C=C(\\O)c1ccc(Cl)cc1"
  TARGET OR SYSTEM: "HOP-92 NSCLC"
  MEASURED QUANTITY: "TGI"
  OBSERVED RESULT: "53.9 µM"
- MOLECULE: "C[C@H]1C[C@@H](n2c(Nc3ccc(OC(F)(F)F)cc3)nc3cc(CCC(=O)O)ccc32)CC(C)(C)C1"
  TARGET OR SYSTEM: "HOP-92 NSCLC"
  MEASURED QUANTITY: "TGI"
  OBSERVED RESULT: "32.1 µM"

---

test system: MCF7 breast; test: NCI tumour cell line growth inhibition, 48 h; in the data active = GI50 below about 0.43 µM; inactive = the rest
Classes used: yes (1) for active, no (0) for inactive

- STRUCTURE SMILES STRING: "Cc1cccc(CNc2c3ccccc3nc3ccccc23)c1"
  ANSWER LABEL: "no (0)"
- STRUCTURE SMILES STRING: "O=C1/C(=C/c2ccc(F)cc2)COc2ccc(O)c(O)c21"
  ANSWER LABEL: "no (0)"
- STRUCTURE SMILES STRING: "O=C1c2c(c3c4cc(F)ccc4oc3c3[nH]c4ccccc4c23)C(=O)N1O"
  ANSWER LABEL: "no (0)"
- STRUCTURE SMILES STRING: "CN[C@@H](C)C(=O)N[C@H](C(=O)N1CCC[C@H]1c1nc(C(=O)c2ccc(F)cc2)cs1)C1CCCCC1"
  ANSWER LABEL: "no (0)"
- STRUCTURE SMILES STRING: "COc1ccc(/C=C\\c2cc(OC)c(OC)c(OC)c2)cc1NC(=O)/C=C/c1ccc(OC)c(OC)c1"
  ANSWER LABEL: "no (0)"
- STRUCTURE SMILES STRING: "COc1ccc(Cn2cc3c(c2-c2ccccc2)CCc2cnoc2-3)cc1"
  ANSWER LABEL: "yes (1)"
- STRUCTURE SMILES STRING: "COc1ccc(-n2nc(C)c3c(Nc4ccc(NC(=O)Nc5cccc(C(F)(F)F)c5)cc4)ncnc32)cc1"
  ANSWER LABEL: "no (0)"
- STRUCTURE SMILES STRING: "COc1ccc(C2=C(c3ccc(OC)cc3)C(=O)OC2)cc1"
  ANSWER LABEL: "no (0)"
- STRUCTURE SMILES STRING: "CN(C)Cc1ccc(NC(=O)c2cncc(C#Cc3cnc(N)c4ncccc34)c2)cc1C(F)(F)F"
  ANSWER LABEL: "no (0)"
- STRUCTURE SMILES STRING: "CC(C)(C)OC(=O)NCCCCCCCCCn1c2c(c3ccccc3c1=O)C(=O)c1ccccc1-2"
  ANSWER LABEL: "no (0)"

---

system: HOP-18 NSCLC; experiment: NCI tumour cell line growth inhibition, 48 h
Listing of entries alongside the reported TGI.

- MOLECULE: "Cc1ccc(C(=O)Nc2ccc(S(=O)(=O)O)c3cc(S(=O)(=O)O)cc(S(=O)(=O)O)c23)cc1NC(=O)c1cccc(NC(=O)Nc2cccc(C(=O)Nc3cc(C(=O)Nc4ccc(S(=O)(=O)O)c5cc(S(=O)(=O)O)cc(S(=O)(=O)O)c45)ccc3C)c2)c1"
  TGI: "> 93.3 µM"
- MOLECULE: "CC(=O)CC[N+](C)(C)C"
  TGI: "30.5 µM"
- MOLECULE: "O=C1NC(c2ccccc2)(c2ccccc2)C(=O)N1CCCCCCN1C(=O)NC(c2ccccc2)(c2ccccc2)C1=O"
  TGI: "> 100 µM"
- MOLECULE: "COc1ccc2c(c1OC)C(=O)C2"
  TGI: "> 100 µM"
- MOLECULE: "ClCCCN1CCN(CCCl)CC1"
  TGI: "> 1000 µM"
- MOLECULE: "O=C(c1ccccc1)c1nc2c(Cl)ccc(Cl)c2cc1C(Br)Br"
  TGI: "3.17 µM"
- MOLECULE: "COc1cc(/C=C/c2ccc(OC)c(OC)c2)oc(=O)c1"
  TGI: "> 250 µM"
- MOLECULE: "Cn1c(=O)nc2n(-c3ccc(Br)cc3)c3ccccc3nc-2c1=O"
  TGI: "18.8 µM"
- MOLECULE: "N#CN1CC[C@@H]2CC3(CCC2C1)OCCO3 (some centres undefined)"
  TGI: "> 100 µM"

---

tested on: OVCAR-4 ovarian; experiment: NCI tumour cell line growth inhibition, 48 h
Listing of entries alongside the reported TGI.

- COMPOUND: "COc1cc(C[C@@]2(C)[C@@H]3CCC[C@H](CO)[C@@]3(C)CC[C@@H]2C)c(Cl)c(OC)c1"
  TARGET OR SYSTEM: "OVCAR-4 ovarian"
  UNIT OF MEASUREMENT: "µM"
  OPERATOR: "="
  TGI: 33.3
- COMPOUND: "CC1OC(NCCNCCNC2OC(C)C(O)C(O)C2O)C(O)C(O)C1O (stereo unspecified)"
  TARGET OR SYSTEM: "OVCAR-4 ovarian"
  UNIT OF MEASUREMENT: "µM"
  OPERATOR: ">"
  TGI: 100
- COMPOUND: "CC1=C(C)C(=O)OC(C(C)(O)C2(O)CC3OC34C3CC(O)C56OC5C=CC(=O)C6(C)C3CCC42C)C1 (stereo unspecified)"
  TARGET OR SYSTEM: "OVCAR-4 ovarian"
  UNIT OF MEASUREMENT: "µM"
  OPERATOR: "="
  TGI: 20.3
- COMPOUND: "CCN(Cc1ccc(Cl)c(Cl)c1)c1ccc2nc(N)nc(N)c2c1C"
  TARGET OR SYSTEM: "OVCAR-4 ovarian"
  UNIT OF MEASUREMENT: "µM"
  OPERATOR: "="
  TGI: 16.1
- COMPOUND: "CN(C)S(=O)(=O)c1cccc(C(=O)Nc2nc(-c3ccc(F)c(F)c3)cs2)c1"
  TARGET OR SYSTEM: "OVCAR-4 ovarian"
  UNIT OF MEASUREMENT: "µM"
  OPERATOR: ">"
  TGI: 84.1
- COMPOUND: "Cc1cc2ncn(CC(=O)O)c2cc1C"
  TARGET OR SYSTEM: "OVCAR-4 ovarian"
  UNIT OF MEASUREMENT: "µM"
  OPERATOR: ">"
  TGI: 100
